All values here come from paper PMC8224453.

# ASSAY DETAILS: In vivo pharmacokinetics after intratracheal instillation
# Parameters: species or system mouse
# RUN CONDITIONS: male, CD1, mouse, BALF and plasma, inhaled or intranasal; mice, intratracheal; read-out: AUC ratio BALF/Plasma
REPORTED PROPERTY: Kp
Answers are plain numbers.

> print(dat)
                              record.smiles  endpoint.result
1  NC[C@H]1O[C@H](O[C@H]2[C@H](O)[C@@H](O[C@H]3O[C@H](CO)[C@@H](O)[C@H](N)[C@H]3O)[C@H](N)C[C@@H]2N)[C@H](N)C[C@@H]1O              3.2

Here is the next item to consider.
Kp for FC(F)(F)c1cc(NCc2cn(-c3ccc(Oc4ccccc4)cc3)nn2)ccn1 ?
86.9

---

# ASSAY DETAILS: In vivo pharmacokinetics after intratracheal instillation
# Parameters: species or system mouse
# RUN CONDITIONS: male, CD1, mouse, inhaled or intranasal; mice, intratracheal 0.5 mg kg^−1, plasma; read-out: AUC0‐t plasma
REPORTED PROPERTY: AUC (ng·h/mL)
Numbers only, in ng·h/mL.

AUC for FC(F)(F)c1cc(NCc2cn(-c3ccc(Oc4ccccc4)cc3)nn2)ccn1 ?
55.8

---

# ASSAY DETAILS: Cytotoxicity assay in HepG2
# Assay type: cell-based
# RUN CONDITIONS: human, HepG2 cells, HepG2, @75 × 10^−6 M, read-out: Cytotoxicity, viable cells
REPORTED PROPERTY: viability at 48 h, 75 × 10^−6 M (%)
Numbers only, in %.

viability at 48 h, 75 × 10^−6 M for COc1ccc(-n2cc(CNc3ccnc(C(F)(F)F)c3)nn2)cc1Cl [Compound 17] ?
68

---

# ASSAY DETAILS: In vivo pharmacokinetics after intratracheal instillation
# Parameters: species or system mouse
# RUN CONDITIONS: male, CD1, mouse, inhaled or intranasal, 0.5 mg kg^−1; mice, intratracheal, ELF calculated from BALF; read-out: MRT ELF
Would you kindly list MRT for each of these compounds?
Answers are plain numbers, in h.

> print(dat)
                              record.smiles  reported.property  endpoint.result
1  NC[C@H]1O[C@H](O[C@H]2[C@H](O)[C@@H](O[C@H]3O[C@H](CO)[C@@H](O)[C@H](N)[C@H]3O)[C@H](N)C[C@@H]2N)[C@H](N)C[C@@H]1O                MRT              1.5

Here is the next item to consider.
MRT for FC(F)(F)c1cc(NCc2cn(-c3ccc(Oc4ccccc4)cc3)nn2)ccn1 ?
1.61

---

Would you kindly list Tmax for each of these compounds?
# ASSAY DETAILS: In vivo pharmacokinetics after intratracheal instillation
# Parameters: species or system mouse
# RUN CONDITIONS: male, CD1, mouse, inhaled or intranasal, 0.5 mg kg^−1; mice, intratracheal, plasma; read-out: Tmax plasma
# Protocol: 6.2. PK Sample Preparation and Analysis Groups of male CD1 mice (25-30 g, Charles River UK) were housed in groups of up to 6 and maintained under a 12 h light/dark cycle with free access to food and water. Temperature and humidity were controlled according to U.K. HO regulations. […] All PK plasma samples were analyzed via HPLC-MS/MS using an Agilent 1290 Infinity II HPLC system coupled to an AB Sciex QTrap 6500plus mass spectrometer. […] The lower limits of quantification are indicated in Table S5. […]
One number for each entry, in min.

COMPOUND	REPORTED PROPERTY	ENDPOINT RESULT
NC[C@H]1O[C@H](O[C@H]2[C@H](O)[C@@H](O[C@H]3O[C@H](CO)[C@@H](O)[C@H](N)[C@H]3O)[C@H](N)C[C@@H]2N)[C@H](N)C[C@@H]1O [Tobramycin, tobramycin]	Tmax	30

Here is the next item to consider.
Tmax for FC(F)(F)c1cc(NCc2cn(-c3ccc(Oc4ccccc4)cc3)nn2)ccn1 [Compound 4] ?
30
